systemTested: HIV protease (Human immunodeficiency virus type 1 group M subtype B, UniProt P04585)
Construct: HIV protease was expressed in E. coli [construct pBRT1 prt⁺; made in house; host or cells: E. coli
runDescription: Recombinant HIV Protease HPLC Assay
Format: biochemical
assayConditions: recombinant HIV protease HPLC assay; values in parenthesis in text; read-out: IC₅₀
readout: IC50 (nM)

compound="CC(=O)N[C@@H](CC1CCCCC1)[C@@H](O)CC(=O)N[C@@H](CCC(=O)O)C(=O)NCCCc1ccccc1 [CH₃C(O)-ACHPA-Glu-NHCH₂CH₂CH₂Ph]" reportedresult=160
compound="CC(C[C@H](NC(=O)C[C@H](O)[C@H](CC1CCCCC1)NC(=O)OC(C)(C)C)C(=O)NCCCc1ccccc1)C(=O)O (some centres unmarked)" reportedresult=18
compound="CC(C)(C)OC(=O)N[C@@H](CC1CCCCC1)[C@@H](O)CCC(=O)N[C@@H](CCC(=O)O)C(=O)NCCCc1ccccc1 [Boc-ChaΨ[CH(OH)CH₂]Gly-Glu-NHCH₂CH₂CH₂Ph]" reportedresult=14
compound="COC(=O)CC[C@H](NC(=O)C[C@H](O)[C@H](CC1CCCCC1)NC(=O)OC(C)(C)C)C(=O)NCCOCc1ccccc1 [Boc-ACHPA-Glu(OMe)-NHCH₂CH₂OBzl]" reportedresult=260
compound="CC(C)[C@H](NC[C@H](Cc1ccccc1)NC(=O)OC(C)(C)C)C(=O)N[C@@H](CCC(=O)O)C(=O)NCCCc1ccccc1 [Boc-PheΨ[CH₂NH]Val-Glu-NHCH₂CH₂₂CH₂Ph]" reportedresult=30
compound="COc1ccc(CCNC(=O)[C@H](CCC(=O)O)NC(=O)C[C@H](O)[C@H](CC2CCCCC2)NC(=O)OC(C)(C)C)cc1 [Boc-ACHPA-Glu-NHCH₂CH₂-(4-MeO-Ph)]" reportedresult=33
compound="CC(C)OC(=O)N[C@@H](CC1CCCCC1)[C@@H](O)CC(=O)N[C@@H](CCC(=O)O)C(=O)NCCCc1ccccc1 [Ipoc-ACHPA-Glu-NH-CH₂CH₂CH₂Ph]" reportedresult=6.3
compound="COC(=O)N[C@@H](CC1CCCCC1)[C@@H](O)CC(=O)N[C@@H](CCC(=O)O)C(=O)NCCCc1ccccc1 [Moc-ACHPA-Glu-NHCH₂CH₂CH₂Ph]" reportedresult=15
compound="COC(=O)CC[C@H](NC(=O)C[C@H](O)[C@H](CC1CCCCC1)NC(=O)OC(C)C)C(=O)NCCOCc1ccccc1 [Ipoc-ACHPA-Glu(OMe)-NHCH₂CH₂OBzl]" reportedresult=150
compound="CC(C)(C)OC(=O)N[C@H](CN[C@@H](CC1CC1)C(=O)N[C@@H](CCC(=O)O)C(=O)NCCc1ccccc1)Cc1ccccc1 [Boc-PheΨ[CH₂NH]Cpa-Glu-NHCH₂CH₂Ph]" reportedresult=16
compound="COC(=O)CC[C@H](NC(=O)C[C@H](O)[C@@H](NC(=O)OC(C)(C)C)[C@@H](O)C1CCCCC1)C(=O)NCCCc1ccccc1 [Boc-HACHPA-Glu(OMe)-NHCH₂CH₂CH₂Ph]" reportedresult=120

* * *

systemTested: HIV protease (Human immunodeficiency virus type 1 group M subtype B, UniProt P04585)
Construct: HIV protease was expressed in E. coli [construct pBRT1 prt⁺; made in house; host or cells: E. coli
runDescription: Recombinant HIV Protease HPLC Assay
Assay type: biochemical
IC50 strictly less than 0.09 µM = Satisfied. Otherwise Not satisfied.

compound="CC(C)(C)OC(=O)NC(C(O)CC(=O)NC(CCC(=O)O)C(=O)NCCCc1ccccc1)C(O)C1CCCCC1 (stereo not shown) [Example 33, Boc-HACHPA-Glu-NHCH₂CH₂CH₂Ph]" cat=Satisfied
compound="CC(C)(C)OC(=O)NC(CC1CCCCC1)C(O)CC(=O)NC(CCC(=O)O)C(=S)NCCCc1ccccc1 (stereo not shown) [Example 31, Boc-ACHPA-GluΨ[CSNH]-NHCH₂CH₂CH₂Ph]" cat="Not satisfied"
compound="O=C(O)CCC(NC(=O)CC(O)C(CC1CCCCC1)NC(=O)C1CCCCC1)C(=O)NCCc1ccccc1 (stereo not shown) [Example 12]" cat="Not satisfied"
compound="CC(C)(C)OC(=O)NC(CC1CC1)C(O)CC(=O)NC(CCC(=O)O)C(=O)NCCCc1ccccc1 (stereo not shown) [Example 18, Boc-ACPPA-Glu-NHCH₂CH₂CH₂Ph]" cat="Not satisfied"
compound="CC(C)(C)OC(=O)NC(CC1CCCCC1)C(O)CC(=O)NC(CCC(=O)O)C(=O)NCCCc1ccccc1 (stereo not shown) [Example 4, Boc-ACHPA-Glu-NHCH₂CH₂CH₂Ph]" cat=Satisfied
compound="CCC(CC)C(=O)NC(CC1CCCCC1)C(O)CC(=O)NC(CCC(=O)O)C(=O)NCCc1ccccc1 (stereo not shown) [Example 6, (C₂H₅)₂CHC(O)-ACHPA-Glu-NHCH₂CH₂Ph]" cat="Not satisfied"
compound="CSc1ccc(CCNC(=O)C(CCC(=O)O)NC(=O)CC(O)C(CC2CCCCC2)NC(=O)OC(C)(C)C)cc1 (stereo not shown) [Example 22, Boc-ACHPA-Glu-NHCH₂CH₂-(4MeS-Ph)]" cat=Satisfied
compound="CCCCCCCCNC(=O)C(CCC(=O)O)NC(=O)CC(O)C(CC1CCCCC1)NC(=O)OC(C)(C)C (stereo not shown) [Example 13, Boc-ACHPA-Glu-NH(CH₂)₇CH₃]" cat=Satisfied
compound="CC(C)(C)NC(=O)NC(CC1CCCCC1)C(O)CC(=O)NC(CCC(=O)O)C(=O)NCCCc1ccccc1 (stereo not shown) [Example 26, (CH₃)₃CNHCO-ACHPA-Glu-NHCH₂CH₂CH₂Ph]" cat="Not satisfied"
compound="CC(C)C[C@H](NC[C@H](Cc1ccccc1)NC(=O)OC(C)(C)C)C(=O)N[C@@H](CCC(=O)O)C(=O)NCCCc1ccccc1 [Example 1, Boc-PheΨ[CH₂NH]Leu-Glu-NHCH₂CH₂CH₂Ph]" cat=Satisfied
compound="CC(C)(C)OC(=O)NC(CC1CCCCC1)C(O)CC(=O)NC(CCC(=O)O)C(=O)OCCCc1ccccc1 (stereo not shown) [Example 25, Boc-ACHPA-Glu-OCH₂CH₂CH₂Ph]" cat=Satisfied
compound="CC(C)(C)OC(=O)NC(CNC(CC1CC1)C(=O)NC(CCC(=O)O)C(=O)NCCCc1ccccc1)Cc1ccccc1 (stereo not drawn) [Example 2, Boc-PheΨ[CH₂NH]Cpa-Glu-NHCH₂CH₂CH₂Ph]" cat=Satisfied
compound="COC(=O)CCC(NC(=O)CC(O)C(CC1CCCCC1)NC(=O)OC(C)(C)C)C(=O)NCCCc1ccccc1 (stereo not shown) [Example 5, Boc-ACHPA-Glu(OMe)-NHCH₂CH₂CH₂Ph]" cat="Not satisfied"

* * *

systemTested: HIV protease (Human immunodeficiency virus type 1 group M subtype B, UniProt P04585)
Construct: HIV protease was expressed in E. coli [construct pBRT1 prt⁺; made in house; host or cells: E. coli
runDescription: Recombinant HIV Protease HPLC Assay
Type: biochemical
assayConditions: read-out: IC₅₀; recombinant HIV protease HPLC assay; values in parenthesis in text
IC50 strictly less than 80 nM = t. Otherwise f.

smilesrecord=COC(=O)CC[C@H](NC(=O)C[C@H](O)[C@H](CC1CCCCC1)NC(=O)OC(C)(C)C)C(=O)NCCCc1ccc(F)cc1 cat=f
smilesrecord=COC(=O)CC[C@H](NC(=O)C[C@H](O)[C@H](CC1CCCCC1)NC(=O)OC(C)(C)C)C(=O)NCCOc1ccccc1Cl cat=f
smilesrecord=CC(C)(C)OC(=O)N[C@@H](CC1CCCCC1)[C@@H](O)CC(=O)N[C@@H](CCC(=O)O)C(=O)NCCCc1ccc(F)cc1 cat=t
smilesrecord=CC(C)(C)OC(=O)N[C@@H](CC1CCCCC1)[C@@H](O)CC(=O)N[C@@H](CCC(=O)O)C(=O)NCCOc1ccccc1Cl cat=t
smilesrecord=CC(C)(C)OC(=O)N[C@@H](CC1CCCCC1)[C@@H](O)CC(=O)N[C@@H](CCC(=O)O)C(=O)NCCc1ccc(Cl)cc1 cat=t

* * *

systemTested: HIV protease (Human immunodeficiency virus type 1 group M subtype B)
Construct: HIV protease was expressed in E. coli [construct pBRT1 prt⁺; made in house; host or cells: E. coli
runDescription: Recombinant HIV Protease HPLC Assay
Assay type: biochemical
assayConditions: recombinant HIV protease HPLC assay; values in parenthesis in text; read-out: IC₅₀
Let's look at some compounds and their measured log10(IC50).
readout: log10(IC50) (log10 of the value in nM)

compound=COC(=O)CC[C@H](NC(=O)CC[C@H](O)[C@H](CC1CCCCC1)NC(=O)OC(C)(C)C)C(=O)NCCCc1ccccc1 systemtested="HIV protease (Human immunodeficiency virus type 1 group M subtype B)" readout=log10(IC50) reportedresult=2.78
compound=CC(C)(C)OC(=O)N[C@@H](CC1CCCCC1)[C@@H](O)CC(=O)N[C@@H](CCC(=O)O)C(=O)NCCCc1ccco1 systemtested="HIV protease (Human immunodeficiency virus type 1 group M subtype B)" readout=log10(IC50) reportedresult=1.40
compound=CC(C)(C)OC(=O)N[C@@H](CC1CCCCC1)[C@@H](O)CC(=O)N[C@@H](CCC(=O)O)C(=O)NCCCc1cccs1 systemtested="HIV protease (Human immunodeficiency virus type 1 group M subtype B)" readout=log10(IC50) reportedresult=1.52
compound="COC(=O)CCC(NC(=O)CC(O)C(CC1CCCCC1)NC(=O)OC(C)(C)C)C(=O)NCCc1ccc(SC)cc1 (stereo not shown)" systemtested="HIV protease (Human immunodeficiency virus type 1 group M subtype B)" readout=log10(IC50) reportedresult=1.96
compound="CCCC[C@H](NC[C@H](Cc1ccccc1)NC(=O)OC(C)(C)C)C(=O)N[C@@H](CCC(=O)O)C(=O)NCCCc1ccccc1 [Boc-PheΨ[CH₂NH]Nle-Glu-NHCH₂CH₂CH₂Ph]" systemtested="HIV protease (Human immunodeficiency virus type 1 group M subtype B)" readout=log10(IC50) reportedresult=1.08
compound="CC(C)(C)OC(=O)NC(CC1CCCCC1)C(O)CC(=O)NC(CCC(=O)O)C(=O)NCCOCc1ccccc1 (stereo not shown)" systemtested="HIV protease (Human immunodeficiency virus type 1 group M subtype B)" readout=log10(IC50) reportedresult=0.85
compound=CC(C)(C)OC(=O)N[C@@H](CC1CCCCC1)[C@@H](O)CC(=O)N[C@@H](CCC(=O)O)C(=O)NCCOc1ccccc1 systemtested="HIV protease (Human immunodeficiency virus type 1 group M subtype B)" readout=log10(IC50) reportedresult=0.93
